Just for reference, patent US20110311550A1 is where these values come from.

# Target Entity: HCV E1E2 antigen, isolate UKN5.15.7 (hepatitis C virus, isolate UKN5.15.7)
# Test Details: ELISA, Fab on E1E2 antigen
Outcome Measure: OD 450 nm
Show the value, then the unit it is measured in.

Lab note: measured OD 450 nm of Fab N4 (Fab, V domains shown) VH: VQLLEQSGPEVKKPGDSLRISCKMSGDSLVTTWIGWVRQKPGQGLEWMGIINPGDSSTNIYPGDSATRYGPSFQGQVTISIDKSTSTAYLQWNNVKASDTGIYYCARHVPVPISGTFLWREREMHDFGYFDDWGQGTLVIVSS VL: ELTLTQSPGTLSLSPGERATLSCRASQSVSNNYLAWYQQKPGQAPRLLIYGASSRATGIPDRFSGSGSGTGFTLIISRLEPEDFAVYYCQQYGSSSITFGQGTRLEIKR was 0.71 OD 450 nm

Lab note: measured OD 450 nm of Fab N2 (Fab, V domains shown) VH: VQLLEQSGPEVKKPGDSLRISCKMSGDSLVTTWIGWVRQKPGQGLEWMGIINPGDSSTNIYPGDSATRYGPSFQGQVTISIDKSTSTAYLQWNTVKPSDTGIYYCARHVPVPISGTFLWREREMHDFGYFDDWGQGTLVIVSS VL: ELTQSPGTLSLFPGERATLSCRASQSILGRYLAWYQQKGGRAPRLLIFGASKRATGIPDRFSGSGSGTDFTLTIGRLEPEDFAVYYCQHYGSSITFGQGTRLDIKR was 0.46 OD 450 nm

Lab note: measured OD 450 nm of Fab N1 (Fab, V domains shown) VH: VQLLEQSGPEVKKPGDSLRISCKMSGDSLVTTWIGWVRQKPGQGLEWMGIINPGDSSTNIYPGDSATRYGPSFQGQVTISIDKSTSTAYLQWNAVKPSDTGIYYCARHVPVPISGTFLWREREMHDFGYFDDWGQGTLVIVSS VL: ELTQSPGTLSLSPGERATLSCRASQSVSSSYLAWYQQKPGQAPRLLIYGASNRAAGIPDRFSGSGSGADFTLTISRLEPEDFAVYYCQQYGSSLITFGQGTRLEIKR was 0.43 OD 450 nm

Lab note: measured OD 450 nm of Fab O1 (Fab, V domains shown) VH: VQLLEQSGAEVKKAGESVRLSCKASGYRFGDYWIAWVRQLPGRAPEWMGIIYPDDSDTKYSPSFQGQVTISADKSIRTTFLDWGSLKASDTAIYYCARGCLGAKCYYPHYYYGLDVWGQGTTVIVSS VL: ELTQSPSSLSASVGDRVTITCRATQGIDNYLNWYQQKPGKPPRLLIYGASSLQSGVPSRFSGGGSGTHFTLTITNLQPEDFATYYCQQSYSTPPETFGQGTKVEIKR was 0.1 OD 450 nm

Lab note: measured OD 450 nm of Fab R1 (Fab, V domains shown) VH: VQLLEQSGAEVKKPGASVKVSCKASGYTFSIYGVAWVRQAPGQGLEWMGWISPQNGDTHSPQKFQGRLTMTTDTSTSTAYMELRSLRSDDTAVYFCARDYGVNFGGGSEHNLDYWGRGTRVTVSS VL: ELTQSPLSLPVTPGEPASISCRSSYSLLHINGYKYLDWYLQRPGQSPQLLIYLGSNRAPGVPDRFSGSGSGTSFTLKISRVEAEDVGVYYCMQSLQAPWTFGQGTKVEMKR was 0 OD 450 nm
